- Assayed system: human ether-à-go-go-related gene (hERG) potassium channel (human);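 note: peak tail current of the secondary pulse compared with the same well before compound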
- Test method notes: primary screen, population patch clamp on CHO cells stably expressing hERG; higher = less effect of the substance
- Experimental: Briefly, Chinese hamster ovary (CHO) cells stably expressing the hERG channel were dislodged from tissue culture flasks and dispensed into PPC plates. […] During the recording, background leak currents were estimated by a 100 ms step to -80 mV from an initial holding potential of -70 mV and subtracted from the subsequent current measurement. The campaign was conducted in two phases using slight differences in recording protocol. […]
Hit rate of the full screen: of about 310,000 compounds, about 14,000 (4.5%) showed an effect of 50% or more. The effect is printed as a negative number. The entries come from a sample that favours strong results as a whole.
Attribute measured: hERG current change (%, negative = inhibition) at 10uM
Express the reported value numerically, then name its unit.

A selection of reference data follows.
CN1/C(=C\C(=O)CSc2nnc(N)s2)C(C)(C)c2ccccc21: 0.532%
CCC1CCCCN1CC(=O)c1c(C)[nH]c2ccccc12 (centres unmarked): -27.4%
COC(=O)/C(=C/c1ccccc1)NC(=O)c1ccco1: 4.23%
CC1CCN(C(=O)CNC(=O)CNC(=O)Cc2ccccc2)CC1: 4.9%

Using the record for CSc1ccccc1C(=O)C1CCCN(Cc2cnn(-c3ccccc3)c2)C1 (centres unmarked) , state its measured hERG current change (%, negative = inhibition) at 10uM.
-67.4%

Using the record for CSc1ccccc1C(=O)C1CCCN(Cc2ccccn2)C1 (centres unmarked) , state its measured hERG current change (%, negative = inhibition) at 10uM.
-12.6%

Using the record for CSc1ccccc1C(=O)C1CCCN(Cc2ccn[nH]2)C1 (centres unmarked) , state its measured hERG current change (%, negative = inhibition) at 10uM.
-8.34%

Using the record for CC(NCCOc1ccccc1F)C(=O)Nc1ccc(S(N)(=O)=O)cc1 (centres unmarked) , state its measured hERG current change (%, negative = inhibition) at 10uM.
13.4%

Using the record for `Cc1oc2c(O)c(O)ccc2c(=O)c1-c1ccc(Cl)cc1` , state its measured hERG current change (%, negative = inhibition) at 10uM.
-11.3%

====

Measured hERG current change (%, negative = inhibition) at 10uM, listed per entry for reference.
- Assayed system: human ether-à-go-go-related gene (hERG) potassium channel (human, UniProt Q12809);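 note: peak tail current of the secondary pulse compared with the same well before compound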
- Sequence (Q12809 whole entry, looked up): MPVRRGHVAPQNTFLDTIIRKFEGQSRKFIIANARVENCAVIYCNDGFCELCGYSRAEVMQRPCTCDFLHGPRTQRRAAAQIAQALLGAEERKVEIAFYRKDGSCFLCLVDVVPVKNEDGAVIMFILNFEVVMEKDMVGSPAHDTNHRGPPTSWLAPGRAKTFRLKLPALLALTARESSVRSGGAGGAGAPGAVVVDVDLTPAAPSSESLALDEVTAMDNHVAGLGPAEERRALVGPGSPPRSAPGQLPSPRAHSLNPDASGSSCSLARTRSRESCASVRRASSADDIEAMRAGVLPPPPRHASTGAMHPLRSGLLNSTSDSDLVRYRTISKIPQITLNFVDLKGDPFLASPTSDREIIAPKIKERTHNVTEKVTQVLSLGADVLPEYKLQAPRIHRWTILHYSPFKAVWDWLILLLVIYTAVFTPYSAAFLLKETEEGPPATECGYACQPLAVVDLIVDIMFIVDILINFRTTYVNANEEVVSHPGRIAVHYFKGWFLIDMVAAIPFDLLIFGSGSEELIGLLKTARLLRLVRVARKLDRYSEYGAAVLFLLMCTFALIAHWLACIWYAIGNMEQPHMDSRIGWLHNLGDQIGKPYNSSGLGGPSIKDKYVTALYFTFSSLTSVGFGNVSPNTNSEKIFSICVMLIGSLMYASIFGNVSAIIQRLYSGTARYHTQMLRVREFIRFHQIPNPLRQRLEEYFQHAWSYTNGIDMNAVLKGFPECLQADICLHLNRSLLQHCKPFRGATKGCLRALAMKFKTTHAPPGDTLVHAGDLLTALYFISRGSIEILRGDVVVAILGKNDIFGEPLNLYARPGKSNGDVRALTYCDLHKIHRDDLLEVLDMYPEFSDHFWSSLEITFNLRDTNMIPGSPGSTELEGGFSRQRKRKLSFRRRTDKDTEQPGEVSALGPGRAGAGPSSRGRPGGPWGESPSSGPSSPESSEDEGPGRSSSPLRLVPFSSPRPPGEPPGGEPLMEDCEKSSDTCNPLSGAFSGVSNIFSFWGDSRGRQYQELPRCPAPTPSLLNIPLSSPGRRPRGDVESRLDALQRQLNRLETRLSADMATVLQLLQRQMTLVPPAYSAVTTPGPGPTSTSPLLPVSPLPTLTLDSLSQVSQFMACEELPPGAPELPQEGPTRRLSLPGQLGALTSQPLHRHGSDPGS
- Test method notes: primary screen, population patch clamp on CHO cells stably expressing hERG; higher = less effect of the substance
- Method: Briefly, Chinese hamster ovary (CHO) cells stably expressing the hERG channel were dislodged from tissue culture flasks and dispensed into PPC plates. […] During the recording, background leak currents were estimated by a 100 ms step to -80 mV from an initial holding potential of -70 mV and subtracted from the subsequent current measurement. The campaign was conducted in two phases using slight differences in recording protocol. […]
Screen size: about 310,000 compounds; about 14,000 (4.5%) showed an effect of 50% or more. The effect is printed as a negative number. The full list was thinned out, with strong results kept by preference.
Express the reported value numerically, then name its unit.

Cc1ccc(C(=O)N/C(=C\c2ccc(-c3ccccc3[N+](=O)[O-])o2)C(=O)NCCCN2CCOCC2)cc1: -61.9%
CC(=O)c1sc(NC(=O)c2ccc(COc3ccccc3Cl)o2)nc1C: 33.5%
O=C(Nc1ccc([N+](=O)[O-])cc1)c1nc[nH]c1C(=O)NC1CCCCC1: 16.2%
Cc1nnc(C)c2c(C)n(Cc3ccc4c(c3)OCO4)c(C)c12: -71.4%
N#C/C(=C\c1ccc(-c2cccc([N+](=O)[O-])c2)o1)C(=O)NCCN1CCOCC1: -47.2%

Give the observed hERG current change (%, negative = inhibition) at 10uM of CC(C)(C)NC(=O)CN(C(=O)C1CSC(=O)C1)c1ccccc1F (stereo not shown) for human ether-à-go-go-related gene (hERG) potassium channel (human, UniProt Q12809).
-0.923%

Give the observed hERG current change (%, negative = inhibition) at 10uM of `COC(=O)CCSc1cc(NCCOC(C)=O)c([N+](=O)[O-])c2nonc12` for human ether-à-go-go-related gene (hERG) potassium channel (human, UniProt Q12809).
-25.6%

Give the observed hERG current change (%, negative = inhibition) at 10uM of Cc1ccc(C(OC(=O)c2ccco2)C(=O)NC(C)(C)C)cc1 (stereo not shown) for human ether-à-go-go-related gene (hERG) potassium channel (human, UniProt Q12809).
10.8%

Give the observed hERG current change (%, negative = inhibition) at 10uM of CC1CC(C)CN(S(=O)(=O)c2ccc3oc(=O)ccc3c2)C1 (stereo not shown) for human ether-à-go-go-related gene (hERG) potassium channel (human, UniProt Q12809).
-59.5%

Give the observed hERG current change (%, negative = inhibition) at 10uM of `Cc1nc2cc(NC(=O)Nc3ccc(Br)cc3)ccc2o1` for human ether-à-go-go-related gene (hERG) potassium channel (human, UniProt Q12809).
9.81%
